// data source = paper PMC12680351

Measured parameter: Ki (µM)
State the answer as a number, implicitly in µM.

Prompt: Give measured Ki for O=C(O)[C@H](O)[C@@H](O)[C@H](O)[C@H](O)COP(=O)(O)O [6-phosphogluconate] (NagS (Streptomyces coelicolor, UniProt Q9K3V1)).
Response: 280
